Target: Ditrans,polycis-undecaprenyl-diphosphate synthase ((2E,6E)-farnesyl-diphosphate specific) (Escherichia coli (strain K12), UniProt P60472)
Sequence (P60472 whole entry): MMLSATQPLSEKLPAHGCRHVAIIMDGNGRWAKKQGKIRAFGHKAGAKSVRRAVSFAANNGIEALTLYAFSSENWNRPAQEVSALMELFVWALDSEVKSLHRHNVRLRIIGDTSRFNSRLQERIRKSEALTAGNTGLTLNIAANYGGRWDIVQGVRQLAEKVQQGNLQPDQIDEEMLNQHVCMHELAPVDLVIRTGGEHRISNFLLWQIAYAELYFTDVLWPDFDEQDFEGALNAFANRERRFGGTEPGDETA
Test: Inhibition of Escherichia coli UPPS
Observed property: IC50 (nM)
Answer in nM, number only, no unit symbol.

input: Consider the compound O=P(O)(O)C(O)(Cc1cccc(-c2cccc3oc4ccccc4c23)c1)P(=O)(O)O and give its measured IC50.
output: 590

====

Tested on: Toxoplasma gondii
Assay: Antiparasitic activity against Toxoplasma gondii tachyzoites infected in human foreskin fibroblast incubated for 48 hrs followed by [5,6-3H]uracil addition and measured after 4 hrs by scintillation counter analysis
Type: functional, organism-based
Conditions: type III
Reported IC50 values for the following compounds.
Answer in µM, number only, no unit symbol.

input: Consider the compound CCCCCCCCCCC(O)(P(=O)(O)O)P(=O)(O)O and give its measured IC50.
output: 0.28

====

Tested on: Entamoeba histolytica
Test: Antiparasitic activity against Entamoeba histolytica trophozoites assessed as parasite growth inhibition incubated for 90 hrs followed by [3H]hypoxanthine addition and measured after 6 hrs by scintillation counter analysis
Format: functional, organism-based
Observed property: IC50 (µM)
Answer in µM, number only, no unit symbol.

The cases that follow already have their IC50 on record.
input: Reported IC50 for Entamoeba histolytica, given O=P(O)(O)C(O)(Nc1cccc(-c2ccccc2)c1)P(=O)(O)O ?
output: 6.6

input: Reported IC50 for Entamoeba histolytica, given CCCC(O)(P(=O)(O)O)P(=O)(O)O ?
output: 157

--- query ---
input: Reported IC50 for Entamoeba histolytica, given O=P(O)(O)C(O)(Nc1ccc(-c2ccccc2)cc1)P(=O)(O)O ?
output: 8.76

====

Test system: Toxoplasma gondii
Test: Antiparasitic activity against Toxoplasma gondii tachyzoites infected in human foreskin fibroblast incubated for 48 hrs followed by [5,6-3H]uracil addition and measured after 4 hrs by scintillation counter analysis
Assay type: functional, organism-based
Conditions: type III
Reported IC50 values for the following molecules.
Answer in µM, number only, no unit symbol.

input: Consider the molecule CCCCCC(O)(P(=O)(O)O)P(=O)(O)O and give its measured IC50.
output: 9.1

input: Consider the molecule O.O=P(O)(O)C(O)(Cn1ccnc1)P(=O)(O)O and give its measured IC50.
output: 6.7

---
input: Consider the molecule CCCCCCCCCC(O)(P(=O)(O)O)P(=O)(O)O and give its measured IC50.
output: 0.55
